Conditions: in ethanol, 318.15 K
assay-endpoint: solubility (mole fraction)

Lookup: Entry `CC1(C)COP(=O)(Oc2cccc(OP3(=O)OCC(C)(C)CO3)c2)OC1` has what solubility (mole fraction)?
Found: 0.00702

###

Settings: in ethyl acetate, 293.15 K
assay-endpoint: solubility (mole fraction)

Lookup: Entry `CC1(C)COP(=O)(Oc2cccc(OP3(=O)OCC(C)(C)CO3)c2)OC1` has what solubility (mole fraction)?
Found: 0.0008

###

Conditions: in n-propanol, 308.15 K
assay-endpoint: solubility (mole fraction)

Lookup: Entry `CC1(C)COP(=O)(Oc2cccc(OP3(=O)OCC(C)(C)CO3)c2)OC1` has what solubility (mole fraction)?
Found: 0.0026

###

Details: in n-propanol, 313.15 K
assay-endpoint: solubility (mole fraction)

Lookup: Entry `CC1(C)COP(=O)(Oc2cccc(OP3(=O)OCC(C)(C)CO3)c2)OC1` has what solubility (mole fraction)?
Found: 0.00356

###

Conditions: in ethyl acetate, 298.15 K
assay-endpoint: solubility (mole fraction)
Keep it simple and answer with nothing but the number.

Lookup: Entry `CC1(C)COP(=O)(Oc2cccc(OP3(=O)OCC(C)(C)CO3)c2)OC1` has what solubility (mole fraction)?
Found: 0.00099

###

Conditions: in acetonitrile, 303.15 K
assay-endpoint: solubility (mole fraction)
Keep it simple and answer with nothing but the number.

Lookup: Entry `CC1(C)COP(=O)(Oc2cccc(OP3(=O)OCC(C)(C)CO3)c2)OC1` has what solubility (mole fraction)?
Found: 0.0153

###

Settings: in acetonitrile, 313.15 K
assay-endpoint: solubility (mole fraction)
Keep it simple and answer with nothing but the number.

Lookup: Entry `CC1(C)COP(=O)(Oc2cccc(OP3(=O)OCC(C)(C)CO3)c2)OC1` has what solubility (mole fraction)?
Found: 0.0231

###

Conditions: in ethyl acetate, 333.15 K
assay-endpoint: solubility (mole fraction)
Keep it simple and answer with nothing but the number.

Lookup: Entry `CC1(C)COP(=O)(Oc2cccc(OP3(=O)OCC(C)(C)CO3)c2)OC1` has what solubility (mole fraction)?
Found: 0.0042

###

Conditions: in n-hexane, 308.15 K
assay-endpoint: solubility (mole fraction)
Keep it simple and answer with nothing but the number.

Lookup: Entry `CC1(C)COP(=O)(Oc2cccc(OP3(=O)OCC(C)(C)CO3)c2)OC1` has what solubility (mole fraction)?
Found: 4e-05

###

Settings: in ethyl acetate, 313.15 K
assay-endpoint: solubility (mole fraction)
Keep it simple and answer with nothing but the number.

Lookup: Entry `CC1(C)COP(=O)(Oc2cccc(OP3(=O)OCC(C)(C)CO3)c2)OC1` has what solubility (mole fraction)?
Found: 0.00189

###

Details: in ethyl formate, 323.15 K
assay-endpoint: solubility (mole fraction)
Keep it simple and answer with nothing but the number.

Lookup: Entry `CC1(C)COP(=O)(Oc2cccc(OP3(=O)OCC(C)(C)CO3)c2)OC1` has what solubility (mole fraction)?
Found: 0.0116

###

Conditions: in chloroform, 298.15 K
assay-endpoint: solubility (mole fraction)
Keep it simple and answer with nothing but the number.

Lookup: Entry `CC1(C)COP(=O)(Oc2cccc(OP3(=O)OCC(C)(C)CO3)c2)OC1` has what solubility (mole fraction)?
Found: 0.07

###

Details: in ethyl acetate, 323.15 K
assay-endpoint: solubility (mole fraction)
Keep it simple and answer with nothing but the number.

Lookup: Entry `CC1(C)COP(=O)(Oc2cccc(OP3(=O)OCC(C)(C)CO3)c2)OC1` has what solubility (mole fraction)?
Found: 0.00284

###

Settings: in ethyl acetate, 318.15 K
assay-endpoint: solubility (mole fraction)
Keep it simple and answer with nothing but the number.

Lookup: Entry `CC1(C)COP(=O)(Oc2cccc(OP3(=O)OCC(C)(C)CO3)c2)OC1` has what solubility (mole fraction)?
Found: 0.00233

###

Conditions: in methanol, 323.15 K
assay-endpoint: solubility (mole fraction)
Keep it simple and answer with nothing but the number.

Lookup: Entry `CC1(C)COP(=O)(Oc2cccc(OP3(=O)OCC(C)(C)CO3)c2)OC1` has what solubility (mole fraction)?
Found: 0.0284

###

Conditions: in methyl acetate, 293.15 K
assay-endpoint: solubility (mole fraction)
Keep it simple and answer with nothing but the number.

Lookup: Entry `CC1(C)COP(=O)(Oc2cccc(OP3(=O)OCC(C)(C)CO3)c2)OC1` has what solubility (mole fraction)?
Found: 0.00229

###

Conditions: in 1,2-dichloroethane, 323.15 K
assay-endpoint: solubility (mole fraction)
Keep it simple and answer with nothing but the number.

Lookup: Entry `CC1(C)COP(=O)(Oc2cccc(OP3(=O)OCC(C)(C)CO3)c2)OC1` has what solubility (mole fraction)?
Found: 0.0423

###

Conditions: in chloroform, 308.15 K
assay-endpoint: solubility (mole fraction)
Keep it simple and answer with nothing but the number.

Lookup: Entry `CC1(C)COP(=O)(Oc2cccc(OP3(=O)OCC(C)(C)CO3)c2)OC1` has what solubility (mole fraction)?
Found: 0.0807

###

Conditions: in ethanol, 293.15 K
assay-endpoint: solubility (mole fraction)
Keep it simple and answer with nothing but the number.

Lookup: Entry `CC1(C)COP(=O)(Oc2cccc(OP3(=O)OCC(C)(C)CO3)c2)OC1` has what solubility (mole fraction)?
Found: 0.00179

###

Conditions: in toluene, 293.15 K
assay-endpoint: solubility (mole fraction)

Lookup: Entry `CC1(C)COP(=O)(Oc2cccc(OP3(=O)OCC(C)(C)CO3)c2)OC1` has what solubility (mole fraction)?
Found: 0.00016

###

Details: in toluene, 323.15 K
assay-endpoint: solubility (mole fraction)
Keep it simple and answer with nothing but the number.

Lookup: Entry `CC1(C)COP(=O)(Oc2cccc(OP3(=O)OCC(C)(C)CO3)c2)OC1` has what solubility (mole fraction)?
Found: 0.00061

###

Details: in n-hexane, 298.15 K
assay-endpoint: solubility (mole fraction)
Keep it simple and answer with nothing but the number.

Lookup: Entry `CC1(C)COP(=O)(Oc2cccc(OP3(=O)OCC(C)(C)CO3)c2)OC1` has what solubility (mole fraction)?
Found: 2e-05

###

Details: in ethanol, 308.15 K
assay-endpoint: solubility (mole fraction)

Lookup: Entry `CC1(C)COP(=O)(Oc2cccc(OP3(=O)OCC(C)(C)CO3)c2)OC1` has what solubility (mole fraction)?
Found: 0.00413

###

Settings: in methyl acetate, 318.15 K
assay-endpoint: solubility (mole fraction)

Lookup: Entry `CC1(C)COP(=O)(Oc2cccc(OP3(=O)OCC(C)(C)CO3)c2)OC1` has what solubility (mole fraction)?
Found: 0.0062

###

Conditions: in toluene, 298.15 K
assay-endpoint: solubility (mole fraction)

Lookup: Entry `CC1(C)COP(=O)(Oc2cccc(OP3(=O)OCC(C)(C)CO3)c2)OC1` has what solubility (mole fraction)?
Found: 0.0002

###

Settings: in n-hexane, 318.15 K
assay-endpoint: solubility (mole fraction)

Lookup: Entry `CC1(C)COP(=O)(Oc2cccc(OP3(=O)OCC(C)(C)CO3)c2)OC1` has what solubility (mole fraction)?
Found: 8e-05

###

Settings: in methyl acetate, 303.15 K
assay-endpoint: solubility (mole fraction)

Lookup: Entry `CC1(C)COP(=O)(Oc2cccc(OP3(=O)OCC(C)(C)CO3)c2)OC1` has what solubility (mole fraction)?
Found: 0.00347

###

Settings: in ethanol, 298.15 K
assay-endpoint: solubility (mole fraction)
Keep it simple and answer with nothing but the number.

Lookup: Entry `CC1(C)COP(=O)(Oc2cccc(OP3(=O)OCC(C)(C)CO3)c2)OC1` has what solubility (mole fraction)?
Found: 0.0024

###

Settings: in n-hexane, 323.15 K
assay-endpoint: solubility (mole fraction)
Keep it simple and answer with nothing but the number.

Lookup: Entry `CC1(C)COP(=O)(Oc2cccc(OP3(=O)OCC(C)(C)CO3)c2)OC1` has what solubility (mole fraction)?
Found: 0.00012

###

Conditions: in ethyl formate, 313.15 K
assay-endpoint: solubility (mole fraction)
Keep it simple and answer with nothing but the number.

Lookup: Entry `CC1(C)COP(=O)(Oc2cccc(OP3(=O)OCC(C)(C)CO3)c2)OC1` has what solubility (mole fraction)?
Found: 0.00842

###

Conditions: in acetonitrile, 293.15 K
assay-endpoint: solubility (mole fraction)
Keep it simple and answer with nothing but the number.

Lookup: Entry `CC1(C)COP(=O)(Oc2cccc(OP3(=O)OCC(C)(C)CO3)c2)OC1` has what solubility (mole fraction)?
Found: 0.0102

###

Settings: in ethanol, 313.15 K
assay-endpoint: solubility (mole fraction)
Keep it simple and answer with nothing but the number.

Lookup: Entry `CC1(C)COP(=O)(Oc2cccc(OP3(=O)OCC(C)(C)CO3)c2)OC1` has what solubility (mole fraction)?
Found: 0.00541

###

Settings: in 1,2-dichloroethane, 328.15 K
assay-endpoint: solubility (mole fraction)
Keep it simple and answer with nothing but the number.

Lookup: Entry `CC1(C)COP(=O)(Oc2cccc(OP3(=O)OCC(C)(C)CO3)c2)OC1` has what solubility (mole fraction)?
Found: 0.0491

###

Conditions: in n-hexane, 313.15 K
assay-endpoint: solubility (mole fraction)
Keep it simple and answer with nothing but the number.

Lookup: Entry `CC1(C)COP(=O)(Oc2cccc(OP3(=O)OCC(C)(C)CO3)c2)OC1` has what solubility (mole fraction)?
Found: 6e-05
